experimental_target: PRKD3 (human) (UniProt O94806)
Sequence (O94806 whole entry, looked up): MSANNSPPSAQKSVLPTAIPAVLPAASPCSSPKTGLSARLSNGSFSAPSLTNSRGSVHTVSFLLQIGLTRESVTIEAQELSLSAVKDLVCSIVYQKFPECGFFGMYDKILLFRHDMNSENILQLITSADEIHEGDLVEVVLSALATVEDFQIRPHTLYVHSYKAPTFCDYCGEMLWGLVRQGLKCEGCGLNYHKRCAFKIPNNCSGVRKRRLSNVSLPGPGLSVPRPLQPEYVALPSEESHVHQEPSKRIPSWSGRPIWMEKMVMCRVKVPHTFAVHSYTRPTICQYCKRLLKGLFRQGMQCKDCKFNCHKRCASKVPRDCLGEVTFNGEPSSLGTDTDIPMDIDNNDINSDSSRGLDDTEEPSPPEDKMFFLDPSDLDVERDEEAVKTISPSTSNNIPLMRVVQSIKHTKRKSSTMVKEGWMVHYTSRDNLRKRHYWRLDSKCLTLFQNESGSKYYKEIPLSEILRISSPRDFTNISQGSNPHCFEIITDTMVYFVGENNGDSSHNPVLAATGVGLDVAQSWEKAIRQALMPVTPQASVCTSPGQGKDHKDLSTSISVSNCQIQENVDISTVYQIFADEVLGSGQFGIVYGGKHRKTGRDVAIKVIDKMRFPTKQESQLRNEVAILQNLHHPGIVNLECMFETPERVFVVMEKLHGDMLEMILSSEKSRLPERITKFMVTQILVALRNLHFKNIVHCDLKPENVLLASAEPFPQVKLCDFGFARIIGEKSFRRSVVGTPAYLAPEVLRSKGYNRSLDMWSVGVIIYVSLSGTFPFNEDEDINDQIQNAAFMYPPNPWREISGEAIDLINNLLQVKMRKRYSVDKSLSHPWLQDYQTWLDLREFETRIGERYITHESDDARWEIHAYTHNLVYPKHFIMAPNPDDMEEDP
method_notes: radiometric filter-binding kinase assay, Kinase HotSpot
test_conditions: compound 0.5 µM; ATP 10 µM
measure_name: residual activity

Before answering, review these 5 worked examples.
compound_string=O=C1NC(=O)/C(=C/c2ccc3c(c2)OC(F)(F)O3)S1 experimental_target="PRKD3 (human) (UniProt O94806)" value_measured=91.4%
compound_string=CC#CC(=O)Nc1cc2c(Nc3ccc(F)c(Cl)c3)ncnc2cn1 experimental_target="PRKD3 (human) (UniProt O94806)" value_measured=103%
compound_string=COc1ccc(COc2ccc(Cc3cnc(N)nc3N)cc2OC)cc1 experimental_target="PRKD3 (human) (UniProt O94806)" value_measured=97.1%
compound_string=c1ccc(-c2n[nH]cc2-c2ccnc3ccccc23)nc1 experimental_target="PRKD3 (human) (UniProt O94806)" value_measured=56.1%
compound_string=O=C1Nc2ccc(Cl)cc2/C1=C/c1cc(Cl)c(O)c(Cl)c1 experimental_target="PRKD3 (human) (UniProt O94806)" value_measured=80.7%

// for each compound in input: emit residual activity
1. CC(C)N(CCC(=O)c1ccc2ccccc2c1)Cc1ccccc1
2. CNc1cc2c(Nc3cccc(Br)c3)ncnc2cn1
3. Nc1cccc(-c2cc3c(Oc4cccc(O)c4)ncnc3[nH]2)c1
4. CNC(=O)c1cc(Oc2ccc(NC(=O)Nc3ccc(Cl)c(C(F)(F)F)c3)cc2)ccn1

Reply:
1. 98.1%
2. 78.5%
3. 91%
4. 94%

* * *

experimental_target: GRK4 (human)
method_notes: radiometric filter-binding kinase assay, Kinase HotSpot
test_conditions: compound 0.5 µM; ATP 10 µM
For each record, write down the corresponding residual activity.
One number for each entry, in %.

Worked cases, answers included:
compound=O=C1NC(=O)c2c1c1c3ccccc3n3c1c1c2c2ccccc2n1C1CCC3O1 experimental_target="GRK4 (human)" value_measured=77
compound=CCN(CC)CCNC(=O)c1c(C)[nH]c(/C=C2\C(=O)Nc3ccc(Cl)cc32)c1C experimental_target="GRK4 (human)" value_measured=80.8
compound=CNc1cc2c(Nc3cccc(Br)c3)ncnc2cn1 experimental_target="GRK4 (human)" value_measured=98.2

Provide residual activity for all items below, preserving their order.
1. O=S(=O)(c1cccc2cnccc12)N1CCCNCC1
2. Cc1ccc(S(=O)(=O)/C=C/C#N)cc1
3. N#C/C(=C(/N)Sc1ccc(N)cc1)c1ccccc1C(F)(F)F

Reply:
1: 104; 2: 96.8; 3: 98.4

For each entry beneath this line, provide reported residual activity.
1. c1ccc(-c2n[nH]c3c2oc2ccccc23)cc1
2. CO[C@H]1CC2CC[C@@H](C)[C@@](O)(O2)C(=O)C(=O)N2CCCC[C@H]2C(=O)OC([C@H](C)C[C@@H]2CC[C@@H](O)[C@H](OC)C2)CC(=O)[C@H](C)/C=C(\C)[C@@H](O)[C@@H](OC)C(=O)[C@H](C)C[C@H](C)/C=C/C=C/C=C/1C (stereo partly specified)
3. O=C(Nc1cccc(Nc2nccc(Nc3cccc(C(F)(F)F)c3)n2)c1)C1CC1

Reply:
1: 110; 2: 96.1; 3: 96.9

* * *

experimental_target: NEK1 (human)
method_notes: radiometric filter-binding kinase assay, Kinase HotSpot
test_conditions: compound 0.5 µM; ATP 10 µM
measure_name: residual activity (%)
Answers are plain numbers, in %.

molecule=CCOC(=O)c1c(C)[nH]c(/C=C2\C(=O)Nc3ccccc32)c1C unit_label=% value_measured=92.5
molecule=Cc1[nH]c(/C=C2\C(=O)Nc3ccc(S(=O)(=O)N(C)c4cccc(Cl)c4)cc32)c(C)c1C(=O)N1CCN(C)CC1 unit_label=% value_measured=23.5
molecule=CCN(CC)CCNC(=O)c1c(C)[nH]c(/C=C2\C(=O)Nc3ccc(Cl)cc32)c1C unit_label=% value_measured=94.7
molecule=O=c1cc(N2CCOCC2)oc2c1ccc1ccccc12 unit_label=% value_measured=106
molecule=CNC(=O)c1cc(Oc2ccc(NC(=O)Nc3ccc(Cl)c(C(F)(F)F)c3)cc2)ccn1 unit_label=% value_measured=88.8
molecule=O=C1NC(=O)/C(=C/c2ccc3c(c2)OC(F)(F)O3)S1 unit_label=% value_measured=79.6
molecule="CO[C@H]1CC2CC[C@@H](C)[C@@](O)(O2)C(=O)C(=O)N2CCCC[C@H]2C(=O)OC([C@H](C)C[C@@H]2CC[C@@H](O)[C@H](OC)C2)CC(=O)[C@H](C)/C=C(\\C)[C@@H](O)[C@@H](OC)C(=O)[C@H](C)C[C@H](C)/C=C/C=C/C=C/1C (stereo partly drawn)" unit_label=% value_measured=104

Continue with the next molecule.
Task item: Suppose we examine the molecule `O=C1NC(=O)c2c1c1c3ccccc3n3c1c1c2c2ccccc2n1C1CCC3O1` ; what residual activity value has been reported?
Reply: 50.9

* * *

experimental_target: CAMK1D (human) (UniProt Q8IU85)
Sequence (Q8IU85 whole entry, looked up): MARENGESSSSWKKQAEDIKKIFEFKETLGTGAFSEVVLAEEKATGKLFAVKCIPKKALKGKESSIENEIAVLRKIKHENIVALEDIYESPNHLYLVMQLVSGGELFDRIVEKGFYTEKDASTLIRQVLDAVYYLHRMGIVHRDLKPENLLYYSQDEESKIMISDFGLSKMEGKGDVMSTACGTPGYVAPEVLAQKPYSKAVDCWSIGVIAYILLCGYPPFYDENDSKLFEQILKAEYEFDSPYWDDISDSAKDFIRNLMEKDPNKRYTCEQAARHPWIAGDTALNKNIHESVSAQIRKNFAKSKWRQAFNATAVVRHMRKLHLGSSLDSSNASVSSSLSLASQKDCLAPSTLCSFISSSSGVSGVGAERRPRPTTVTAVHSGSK
method_notes: radiometric filter-binding kinase assay, Kinase HotSpot
test_conditions: compound 0.5 µM; ATP 10 µM
measure_name: residual activity (%)
Numbers only, in %.

compound_string=CCCC(=O)Oc1ccc2[nH]c(C(=O)c3cc4ccccc4[nH]3)cc2c1 value_measured=103
compound_string=Oc1cccc(-c2nc(N3CCOCC3)c3oc4ncccc4c3n2)c1 value_measured=121
compound_string=c1ccc(-c2n[nH]cc2-c2ccnc3ccccc23)nc1 value_measured=100
compound_string=Nc1ccc2ncnc(NCCc3ccc(Oc4ccccc4)cc3)c2c1 value_measured=102
compound_string=O=C1NC(=O)c2c1c1c3ccccc3n3c1c1c2c2ccccc2n1C1CCC3O1 value_measured=33.6

Let us examine a further case.
Task item: Query (compound): `CC#CC(=O)Nc1cc2c(Nc3ccc(F)c(Cl)c3)ncnc2cn1` ; field requested: residual activity
Reply: 107

* * *

experimental_target: MAP3K2 (human) (UniProt Q9Y2U5)
Sequence (Q9Y2U5 whole entry, looked up): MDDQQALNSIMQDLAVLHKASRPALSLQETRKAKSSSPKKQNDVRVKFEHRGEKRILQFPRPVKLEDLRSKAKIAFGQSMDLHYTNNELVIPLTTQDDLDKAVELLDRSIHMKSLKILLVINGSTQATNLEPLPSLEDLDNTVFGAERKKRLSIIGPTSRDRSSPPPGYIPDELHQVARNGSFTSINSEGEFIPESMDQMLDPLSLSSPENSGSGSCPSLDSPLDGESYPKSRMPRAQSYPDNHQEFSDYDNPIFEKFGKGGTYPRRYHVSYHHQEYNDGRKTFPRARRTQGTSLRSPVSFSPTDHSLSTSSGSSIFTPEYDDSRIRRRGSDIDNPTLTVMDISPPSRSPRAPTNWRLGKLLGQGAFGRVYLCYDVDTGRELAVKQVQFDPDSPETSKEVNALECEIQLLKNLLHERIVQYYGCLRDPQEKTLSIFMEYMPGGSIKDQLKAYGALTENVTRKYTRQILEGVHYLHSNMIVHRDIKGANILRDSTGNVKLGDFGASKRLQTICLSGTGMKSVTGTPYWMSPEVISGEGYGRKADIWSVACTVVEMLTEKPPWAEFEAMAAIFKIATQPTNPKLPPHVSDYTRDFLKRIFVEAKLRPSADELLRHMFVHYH
method_notes: radiometric filter-binding kinase assay, Kinase HotSpot
test_conditions: compound 0.5 µM; ATP 10 µM
measure_name: residual activity (%)
Give bare numbers, in %.

compound=Cc1ccc(S(=O)(=O)/C=C/C#N)cc1 value_measured=91.8
compound="CO[C@H]1CC2CC[C@@H](C)[C@@](O)(O2)C(=O)C(=O)N2CCCC[C@H]2C(=O)OC([C@H](C)C[C@@H]2CC[C@@H](O)[C@H](OC)C2)CC(=O)[C@H](C)/C=C(\\C)[C@@H](O)[C@@H](OC)C(=O)[C@H](C)C[C@H](C)/C=C/C=C/C=C/1C (stereo not given in full)" value_measured=94.8
compound=Cc1ccc(Nc2nccc(N(C)c3ccc4c(C)n(C)nc4c3)n2)cc1S(N)(=O)=O value_measured=110
compound=O=C1NC(=O)/C(=C/c2ccc3c(c2)OC(F)(F)O3)S1 value_measured=94

The record that follows has no residual activity shown yet.
Task item: Recorded residual activity for `O=c1cc(N2CCOCC2)oc2c1ccc1ccccc12` with MAP3K2 (human) (UniProt Q9Y2U5), please?
Reply: 109

* * *

I'd be grateful if you could share measured residual activity for these entries.
experimental_target: PRKCA (human)
method_notes: radiometric filter-binding kinase assay, Kinase HotSpot
test_conditions: compound 0.5 µM; ATP 10 µM
Give bare numbers, in %.

Here is how some compounds turned out for residual activity.
compound=O=C(Nc1cccc(Nc2nccc(Nc3cccc(C(F)(F)F)c3)n2)c1)C1CC1 measure_name="residual activity" value_measured=71.9
compound=COc1ccc(COc2ccc(Cc3cnc(N)nc3N)cc2OC)cc1 measure_name="residual activity" value_measured=95.9
compound=O=C1Nc2ccc(Cl)cc2/C1=C/c1cc(Cl)c(O)c(Cl)c1 measure_name="residual activity" value_measured=105
compound=O=c1cc(N2CCOCC2)oc2c1ccc1ccccc12 measure_name="residual activity" value_measured=89.2
compound=Nc1cccc(-c2cc3c(Oc4cccc(O)c4)ncnc3[nH]2)c1 measure_name="residual activity" value_measured=95.6

Report residual activity for every entry below.
1. Nc1ccc2ncnc(NCCc3ccc(Oc4ccccc4)cc3)c2c1
2. CCCC(=O)Oc1ccc2[nH]c(C(=O)c3cc4ccccc4[nH]3)cc2c1
3. CO[C@H]1CC2CC[C@@H](C)[C@@](O)(O2)C(=O)C(=O)N2CCCC[C@H]2C(=O)OC([C@H](C)C[C@@H]2CC[C@@H](O)[C@H](OC)C2)CC(=O)[C@H](C)/C=C(\C)[C@@H](O)[C@@H](OC)C(=O)[C@H](C)C[C@H](C)/C=C/C=C/C=C/1C (some centres undefined)
4. O=C1NC(=O)C(c2cn(CCCn3ccnc3)c3ccccc23)=C1Nc1ccccc1

Reply:
[103, 102, 108, 32]

* * *

experimental_target: TYRO3 (human) (UniProt Q06418)
Sequence (Q06418 whole entry, looked up): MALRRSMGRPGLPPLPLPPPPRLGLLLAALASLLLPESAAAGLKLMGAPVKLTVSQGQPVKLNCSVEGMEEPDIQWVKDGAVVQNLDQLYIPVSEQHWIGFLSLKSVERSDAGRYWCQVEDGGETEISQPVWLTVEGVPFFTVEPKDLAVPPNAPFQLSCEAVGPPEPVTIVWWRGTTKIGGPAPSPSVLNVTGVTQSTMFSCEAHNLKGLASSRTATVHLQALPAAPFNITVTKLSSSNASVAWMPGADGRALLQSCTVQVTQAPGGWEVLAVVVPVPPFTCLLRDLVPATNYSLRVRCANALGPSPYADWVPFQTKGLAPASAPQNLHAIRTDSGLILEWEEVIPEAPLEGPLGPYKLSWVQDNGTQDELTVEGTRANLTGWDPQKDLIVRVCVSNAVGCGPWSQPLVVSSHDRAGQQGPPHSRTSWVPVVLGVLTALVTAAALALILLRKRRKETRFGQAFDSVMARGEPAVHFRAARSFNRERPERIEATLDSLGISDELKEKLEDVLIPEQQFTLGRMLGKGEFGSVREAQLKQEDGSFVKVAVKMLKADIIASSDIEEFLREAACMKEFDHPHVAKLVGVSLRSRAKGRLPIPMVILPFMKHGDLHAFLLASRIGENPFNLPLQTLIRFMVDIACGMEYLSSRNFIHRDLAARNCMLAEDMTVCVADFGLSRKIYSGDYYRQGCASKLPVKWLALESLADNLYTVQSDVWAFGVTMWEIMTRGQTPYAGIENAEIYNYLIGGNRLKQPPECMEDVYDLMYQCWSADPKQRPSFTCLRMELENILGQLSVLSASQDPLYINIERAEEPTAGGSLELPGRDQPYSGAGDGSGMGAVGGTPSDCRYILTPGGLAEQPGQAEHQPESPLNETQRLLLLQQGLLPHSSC
method_notes: radiometric filter-binding kinase assay, Kinase HotSpot
test_conditions: compound 0.5 µM; ATP 10 µM
measure_name: residual activity (%)
One number for each entry, in %.

Would you please look over these solved cases?
compound_string=CCN(CC)CCNC(=O)c1c(C)[nH]c(/C=C2\C(=O)Nc3ccc(F)cc32)c1C value_measured=28.3
compound_string=N#C/C(=C(/N)Sc1ccc(N)cc1)c1ccccc1C(F)(F)F value_measured=110
compound_string=N#CC(C#N)=C(N)/C(C#N)=C/c1ccc(O)cc1 value_measured=99.3

Please report residual activity for every entry that follows.
1. O=c1cc(N2CCOCC2)oc2c1ccc1ccccc12
2. Cc1ccc(NC2=CC(=O)c3sc(C)nc3C2=O)cc1

Reply:
1: 97.3; 2: 95.3
